Field: MIC Coagulase Negative Staphylococcus (GC 4547). Provide a value for each of the compounds that follow.
System: Staphylococcus sp.
Experiment: In vitro antibacterial evaluation: minimum inhibitory concentration (MIC), broth dilution method
Format: cell-based
Conditions: Coagulase Negative Staphylococcus (GC 4547); broth dilution, 18 hours at 35° C.
Numbered stars: 1 amine (or outer) side, 2 acyl side, 3 side chain; on linkers, the order of the positions; unused ones are H or OH. Square brackets hold non-standard residues; d marks the D form. Peptide text beside a SMILES is read from it. * marks the point of attachment. ξ: configuration not given here. X1 = N=C1NCC(C(O)C(N[*:1])C(=O)[*:2])N1C1OC(CO)C(O)C(O)C1O; ξEnduracididine(βξ-OH,4'ξ) = N=C1NCC(C(O)C(N)C(=O)O)N1; ξPhe(4-Cl,βξ-Me) = CC(c1ccc(Cl)cc1)C(N)C(=O)O; X2 = OCC1OC(OC2C(CO)OC(*)C(O)C2O)C(O)C(O)C1O
A number alone suffices; assume µg/mL.

Req: So what MIC Coagulase Negative Staphylococcus (GC 4547) did CC(c1ccc(Cl)cc1)C1NC(=O)CNC(=O)C(CO)NC(=O)C(C(O)C2CNC(=N)N2C2OC(CO)C(O)C(O)C2O)NC(=O)C(C(O)C2CNC(=N)N2)NC(=O)C(Cc2ccc(OC3OC(CO)C(OC4OC(CO)C(O)C(O)C4O)C(O)C3O)cc2)NC1=O (stereo not drawn) [Example 262a] (cyclo(G[ξPhe(4-Cl,βξ-Me)]Y(X2)[ξEnduracididine(βξ-OH,4'ξ)][X1]S); configuration not given here) get with Staphylococcus sp.?
Resp: 64

Req: Hello, I am looking for reported MIC Coagulase Negative Staphylococcus (GC 4547) with Staphylococcus sp. for N=C1NCC(C(O)C2NC(=O)C(Cc3ccc(O)cc3)NC(=O)C(Cc3ccccc3)NC(=O)CNC(=O)C(CO)NC(=O)C(C(O)C3CNC(=N)N3C3OC(CO)C(O)C(O)C3O)NC2=O)N1 (stereo not drawn) [Example 279a] (cyclo(GFY[ξEnduracididine(βξ-OH,4'ξ)][X1]S); configuration not given here) . Could you help?
Resp: 64

----------
Test system: Staphylococcus sp.
Experiment: In vitro antibacterial evaluation: minimum inhibitory concentration (MIC), broth dilution method
Type: cell-based
Settings: strain GC 4543
quantityKind: MIC Staphylococcus aureus-SMITH (GC 4543) (µg/mL)
Express your answer in µg/mL, writing the number without its unit.

Req: So what does the record say about MIC Staphylococcus aureus-SMITH (GC 4543) for N=C1NCC(C(O)C2NC(=O)C(Cc3ccc(OC4OC(CO)C(OC5OC6COC(Cc7ccccc7)OC6C(O)C5O)C(O)C4O)cc3)NC(=O)C(CC3CCCCC3)NC(=O)CNC(=O)C(CO)NC(=O)C(C(O)C3CNC(=N)N3C3OC(CO)C(O)C(O)C3O)NC2=O)N1 (centres unmarked) [Example 200] ?
Resp: 1

----------
System: Enterococcus sp.
Experiment: In vitro antibacterial evaluation: minimum inhibitory concentration (MIC), broth dilution method
Type: cell-based
Conditions: broth dilution, 18 hours at 35° C.
Numbered stars: 1 amine (or outer) side, 2 acyl side, 3 side chain; on linkers, the order of the positions; unused ones are H or OH. Square brackets hold non-standard residues; d marks the D form. Peptide text beside a SMILES is read from it. ξ: configuration not given here. X1 = N=C1NCC(C(O)C(N[*:1])C(=O)[*:2])N1C1OC(CO)C(O)C(O)C1O; ξEnduracididine(βξ-OH,4'ξ) = N=C1NCC(C(O)C(N)C(=O)O)N1; ξCha(3ξ-Me) = CC(C1CCCCC1)C(N)C(=O)O; Cha = N[CH](CC1CCCCC1)C(=O)O
quantityKind: MIC Enterococcus faecalis (ATCC 29212)

Req: For Enterococcus sp., provide MIC Enterococcus faecalis (ATCC 29212) of CC(c1ccccc1)C1NC(=O)CNC(=O)C(CO)NC(=O)C(C(O)C2CNC(=N)N2C2OC(CO)C(O)C(O)C2O)NC(=O)C(C(O)C2CNC(=N)N2)NC(=O)C(Cc2ccc3oc(C=C(c4ccccc4)c4ccccc4)nc3c2)NC1=O (stereo not drawn) [Example 39] please.
Resp: 16 µg/mL

Req: Checklist item: MIC Enterococcus faecalis (ATCC 29212) tested on Enterococcus sp., entry CC(c1ccccc1)C1NC(=O)CNC(=O)C(CO)NC(=O)C(C(O)C2CNC(=N)N2C2OC(CO)C(O)C(O)C2O)NC(=O)C(C(O)C2CNC(=N)N2)NC(=O)C(Cc2ccc3oc(SCC(=O)c4ccccc4)nc3c2)NC1=O (stereo not drawn) [Example 48] , value?
Resp: 64 µg/mL

Req: Quick check: MIC Enterococcus faecalis (ATCC 29212) on Enterococcus sp., item CC(C1CCCCC1)C1NC(=O)CNC(=O)C(CO)NC(=O)C(C(O)C2CNC(=N)N2C2OC(CO)C(O)C(O)C2O)NC(=O)C(C(O)C2CNC(=N)N2)NC(=O)C(CC2CCCCC2)NC1=O (stereo not drawn) [Example 53] (cyclo(G[ξCha(3ξ-Me)][Cha][ξEnduracididine(βξ-OH,4'ξ)][X1]S); configuration not given here) ?
Resp: 8 µg/mL

Req: Kindly state the measured MIC Enterococcus faecalis (ATCC 29212) obtained for Cc1ccc(Oc2cccc(-c3nc4cc(CC5NC(=O)C(C(C)c6ccccc6)NC(=O)CNC(=O)C(CO)NC(=O)C(C(O)C6CNC(=N)N6C6OC(CO)C(O)C(O)C6O)NC(=O)C(C(O)C6CNC(=N)N6)NC5=O)ccc4o3)c2)cc1 (stereo not drawn) [Example 28] with Enterococcus sp..
Resp: 8 µg/mL

Req: Item CC(c1ccccc1)C1NC(=O)CNC(=O)C(CO)NC(=O)C(C(O)C2CNC(=N)N2C2OC(CO)C(O)C(O)C2O)NC(=O)C(C(O)C2CNC(=N)N2)NC(=O)C(Cc2ccc3oc(-c4ccc(OCc5ccccc5)cc4)nc3c2)NC1=O (stereo not drawn) [Example 31] with Enterococcus sp. - MIC Enterococcus faecalis (ATCC 29212)?
Resp: 64 µg/mL

Req: API: value(readout= MIC Enterococcus faecalis (ATCC 29212), system= Enterococcus sp., query= CC(=O)Nc1cc(CC2NC(=O)C(C(C)c3ccccc3)NC(=O)CNC(=O)C(CO)NC(=O)C(C(O)C3CNC(=N)N3C3OC(CO)C(O)C(O)C3O)NC(=O)C(C(O)C3CNC(=N)N3)NC2=O)ccc1O (stereo not drawn) [Example 13] )
Resp: >64 µg/mL

Req: Quick check: MIC Enterococcus faecalis (ATCC 29212) on Enterococcus sp., item CC(c1ccccc1)C1NC(=O)CNC(=O)C(CO)NC(=O)C(C(O)C2CNC(=N)N2C2OC(CO)C(O)C(O)C2O)NC(=O)C(C(O)C2CNC(=N)N2)NC(=O)C(Cc2ccc3oc(-c4ccc(N(C)C)cc4)nc3c2)NC1=O (stereo not drawn) [Example 29] ?
Resp: 32 µg/mL

Req: Form field: MIC Enterococcus faecalis (ATCC 29212) recorded for CC(c1ccccc1)C1NC(=O)CNC(=O)C(CO)NC(=O)C(C(O)C2CNC(=N)N2C2OC(CO)C(O)C(O)C2O)NC(=O)C(C(O)C2CNC(=N)N2)NC(=O)C(Cc2ccc3oc(SCC(=O)c4ccc(Cl)cc4)nc3c2)NC1=O (stereo not drawn) [Example 49] with Enterococcus sp. (enter value)
Resp: 16 µg/mL

Req: What measured MIC Enterococcus faecalis (ATCC 29212) is associated with CC(c1ccccc1)C1NC(=O)CNC(=O)C(CO)NC(=O)C(C(O)C2CNC(=N)N2C2OC(CO)C(O)C(O)C2O)NC(=O)C(C(O)C2CNC(=N)N2)NC(=O)C(Cc2ccc3oc(SCc4ccc5ccccc5c4)nc3c2)NC1=O (stereo not drawn) [Example 46] on Enterococcus sp.?
Resp: 8 µg/mL

Req: Request body: readout MIC Enterococcus faecalis (ATCC 29212), system Enterococcus sp., query CC(c1ccccc1)C1NC(=O)CNC(=O)C(CO)NC(=O)C(C(O)C2CNC(=N)N2C2OC(CO)C(O)C(O)C2O)NC(=O)C(C(O)C2CNC(=N)N2)NC(=O)C(Cc2ccc3oc(-c4cccc(F)c4)nc3c2)NC1=O (stereo not drawn) [Example 30] . Return the value.
Resp: 64 µg/mL

Req: Give MIC Enterococcus faecalis (ATCC 29212) (Enterococcus sp.) of the following compound: CC(c1ccccc1)C1NC(=O)CNC(=O)C(CO)NC(=O)C(C(O)C2CNC(=N)N2C2OC(CO)C(O)C(O)C2O)NC(=O)C(C(O)C2CNC(=N)N2)NC(=O)C(Cc2ccc3oc(-c4ccc(C(C)(C)C)cc4)nc3c2)NC1=O (stereo not drawn) [Example 32]
Resp: 8 µg/mL

Req: What reported MIC Enterococcus faecalis (ATCC 29212) corresponds to CC(c1ccccc1)C1NC(=O)CNC(=O)C(CO)NC(=O)C(C(O)C2CNC(=N)N2C2OC(CO)C(O)C(O)C2O)NC(=O)C(C(O)C2CNC(=N)N2)NC(=O)C(Cc2ccc(O)c(NC(=O)c3ccccc3)c2)NC1=O (stereo not drawn) [Example 17] on Enterococcus sp.?
Resp: >64 µg/mL
